Attribute: kon
TARGET: T1, recombinant soluble human GARP-TGFβ1 complex (human, UniProt Q14392 20-628; P01137 30-390)
T1 construct: co-expressed in HEK293E, purified by the Strep-Tag; TGFβ consists of LAP and mature TGFβ; also called shGARP-TGFβ; rhGARP-TGFβ
T1 sequence (Q14392 other isoform, or with tags, fused parts or gaps limits assumed, chain 1 of 2): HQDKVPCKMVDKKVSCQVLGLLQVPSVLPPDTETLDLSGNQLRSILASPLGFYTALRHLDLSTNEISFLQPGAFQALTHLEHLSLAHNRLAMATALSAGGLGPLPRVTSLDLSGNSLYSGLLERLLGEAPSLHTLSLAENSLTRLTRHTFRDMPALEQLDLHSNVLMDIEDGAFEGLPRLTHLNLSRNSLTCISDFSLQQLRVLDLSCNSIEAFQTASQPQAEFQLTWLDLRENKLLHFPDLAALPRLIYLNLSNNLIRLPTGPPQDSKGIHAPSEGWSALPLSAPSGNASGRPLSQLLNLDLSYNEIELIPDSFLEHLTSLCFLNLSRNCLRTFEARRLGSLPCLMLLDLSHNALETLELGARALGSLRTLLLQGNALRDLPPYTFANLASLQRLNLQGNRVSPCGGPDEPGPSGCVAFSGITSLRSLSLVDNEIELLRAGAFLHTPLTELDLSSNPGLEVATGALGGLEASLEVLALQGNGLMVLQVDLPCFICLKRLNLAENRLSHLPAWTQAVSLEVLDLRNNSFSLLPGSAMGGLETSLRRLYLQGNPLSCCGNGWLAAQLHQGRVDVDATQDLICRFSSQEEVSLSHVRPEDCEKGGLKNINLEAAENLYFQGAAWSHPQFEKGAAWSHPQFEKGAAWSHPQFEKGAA
T1 sequence (P01137 30-390 limits assumed, chain 2 of 2): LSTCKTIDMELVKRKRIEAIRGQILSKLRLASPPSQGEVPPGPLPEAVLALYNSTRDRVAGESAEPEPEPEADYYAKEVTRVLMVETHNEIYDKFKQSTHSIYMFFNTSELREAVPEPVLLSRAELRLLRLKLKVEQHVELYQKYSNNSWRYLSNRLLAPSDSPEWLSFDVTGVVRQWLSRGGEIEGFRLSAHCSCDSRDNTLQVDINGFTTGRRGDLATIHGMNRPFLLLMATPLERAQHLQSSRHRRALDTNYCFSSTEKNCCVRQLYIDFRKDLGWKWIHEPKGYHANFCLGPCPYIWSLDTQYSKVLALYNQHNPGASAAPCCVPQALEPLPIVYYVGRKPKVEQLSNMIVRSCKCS
TEST DETAILS: SPR (Biacore), hGARP-TGFβ1 immobilised
Quick note: number first, unit second.

Look at this binder and give its reported kon. LHG-10.3 (antibody, human IgG1, V domains shown, VK-shuffled variant of LHG-10, human IgG1) VH: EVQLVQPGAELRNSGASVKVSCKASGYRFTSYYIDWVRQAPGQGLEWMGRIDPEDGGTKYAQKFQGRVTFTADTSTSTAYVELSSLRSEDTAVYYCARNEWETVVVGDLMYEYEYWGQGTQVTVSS VL: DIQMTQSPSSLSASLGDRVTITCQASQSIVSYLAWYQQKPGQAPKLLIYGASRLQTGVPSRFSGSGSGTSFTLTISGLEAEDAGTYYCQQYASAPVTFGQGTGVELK
287000 M⁻¹ s⁻¹

***
Field request: kon | item: LHG-10.4-D (antibody, human IgG1, V domains shown) VH: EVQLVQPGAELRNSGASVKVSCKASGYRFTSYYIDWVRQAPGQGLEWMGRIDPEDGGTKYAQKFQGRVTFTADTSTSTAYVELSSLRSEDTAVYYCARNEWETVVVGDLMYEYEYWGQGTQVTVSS VL: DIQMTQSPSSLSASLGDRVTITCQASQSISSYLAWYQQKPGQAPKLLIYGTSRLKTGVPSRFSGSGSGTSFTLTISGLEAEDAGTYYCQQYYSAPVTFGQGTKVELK
371000 M⁻¹ s⁻¹

Subsequent entry: LHG-10.5 (antibody, human IgG1, V domains shown, VK-shuffled variant of LHG-10, human IgG1) VH: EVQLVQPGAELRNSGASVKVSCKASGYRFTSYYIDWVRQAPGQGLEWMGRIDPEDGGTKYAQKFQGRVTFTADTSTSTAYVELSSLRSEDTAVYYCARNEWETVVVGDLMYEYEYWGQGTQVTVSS VL: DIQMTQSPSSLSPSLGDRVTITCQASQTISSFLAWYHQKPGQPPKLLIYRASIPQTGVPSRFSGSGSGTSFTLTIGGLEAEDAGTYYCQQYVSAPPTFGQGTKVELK
415000 M⁻¹ s⁻¹

Here is the next binder: LHG-10.3-D (antibody, human IgG1, V domains shown) VH: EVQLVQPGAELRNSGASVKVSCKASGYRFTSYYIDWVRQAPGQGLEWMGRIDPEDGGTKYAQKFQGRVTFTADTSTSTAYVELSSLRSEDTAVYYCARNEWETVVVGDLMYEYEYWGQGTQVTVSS VL: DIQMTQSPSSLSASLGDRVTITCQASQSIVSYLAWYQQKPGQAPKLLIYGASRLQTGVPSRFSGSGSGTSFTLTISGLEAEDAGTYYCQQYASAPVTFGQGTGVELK
231000 M⁻¹ s⁻¹

What would you report for LHG-10.6 (antibody, human IgG1, V domains shown, VK-shuffled variant of LHG-10, human IgG1) VH: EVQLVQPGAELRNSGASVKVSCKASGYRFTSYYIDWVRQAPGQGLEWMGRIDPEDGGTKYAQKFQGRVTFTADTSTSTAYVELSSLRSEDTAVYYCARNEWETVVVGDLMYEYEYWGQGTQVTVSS VL: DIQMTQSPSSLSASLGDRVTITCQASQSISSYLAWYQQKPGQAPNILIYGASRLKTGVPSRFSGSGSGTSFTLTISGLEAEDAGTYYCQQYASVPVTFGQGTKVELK ?
276000 M⁻¹ s⁻¹
